As shown below, each of these compounds has a reported cell viability value.
System: U2OS
Assay: cell viability relative to DMSO; higher = less toxic
Details: 72 h; 1000 nM
Report as a plain number; the unit % is understood.

Example entries and their recorded answers appear below.
Cc1ncc(CO)c(CO)c1O [pyridoxine] : 94.6
Cc1nc2cnc3ccc(C#Cc4cccnc4)cc3c2n1-c1ccc(C(C)(C)C#N)cc1 [BAG-956] : 24.9
CN1CC2c3ccccc3Oc3ccc(Cl)cc3C2C1 (stereo not given) [asenapine] : 108
C[C@H](Cn1cnc2c(N)ncnc21)OCP(=O)(O)O [tenofovir] : 99.8
O=Cc1cn(Cc2ccc(Cl)cc2)c2ccccc12 [oncrasin-1] : 100
CC(C)c1cc(-c2ccc(F)c3ccccc23)nc(N)n1 : 97.9
CC(C)=CCC/C(C)=C/CC/C(C)=C/CSc1ccccc1C(=O)O [salirasib] : 96.6
CC(NC(=O)c1ccccc1/N=C/c1c(O)ccc2ccccc12)c1ccccc1 (stereo not given) [sirtinol] : 101
CCCCOc1ccc(CC/C=C2\SC(=O)N(CCN)C2=O)cc1 [K145] : 93.1

// moving on: another record for cell viability
Ask: Request the reported cell viability associated with CC(C)c1ccc(NC(=O)c2cccs2)c(-c2nc3ccccc3[nH]c2=O)c1 [ML281]
Reply: 102

====

Test system: U2OS
Test: relative viability EC50 (midpoint between 100% and the lowest measured viability); higher = less toxic
Settings: 72 h
As shown below, each of these compounds has a reported relative viability EC50 value.

C(#CCN1CCCC1)CN1CCCC1 [tremorine] : > 10 µM
CN1CCN(Cc2ccc(-c3cnc4[nH]cc(-c5ccc6[nH]ccc6c5)c4c3)cc2)CC1 [URMC-099] : 2.79 µM
COCc1nc2c([nH]1)c(=O)n(C)c(=O)n2CC(C)C [MMPX] : > 10 µM
CNCc1cc(-c2ccccc2F)n(S(=O)(=O)c2cccnc2)c1 [vonoprazan] : > 10 µM
CCOC(=O)c1ccc(C#Cc2ccc3c(c2)C(C)(C)CCS3)nc1 [tazarotene] : > 10 µM

Ask: Request the reported relative viability EC50 associated with Cn1c2cc([S+](C)[O-])sc2c2cnn(Cc3cccc(N)c3)c(=O)c21 (stereo unspecified) [TEPP-46]
Reply: > 10 µM

Ask: Request the reported relative viability EC50 associated with c1cc(Nc2cc(C3CC3)n[nH]2)nc(Nc2ccc3[nH]cnc3c2)n1 [APY-29]
Reply: 1.05 µM

Ask: Request the reported relative viability EC50 associated with C[C@@H]1[C@H](O)[C@@H](C)/C=C/C=C/C=C/C=C/C=C/C=C/C=C/[C@H](O[C@@H]2O[C@H](C)[C@@H](O)[C@H](N)[C@@H]2O)C[C@@H]2O[C@](O)(C[C@@H](O)C[C@@H](O)[C@H](O)CC[C@@H](O)C[C@@H](O)CC(=O)O[C@H]1C)C[C@H](O)[C@H]2C(=O)O [amphotericin-b]
Reply: > 10 µM

Ask: Request the reported relative viability EC50 associated with Cc1sc2c(c1C)C(c1ccc(Cl)cc1)=N[C@@H](CC(=O)Nc1ccc(O)cc1)c1nnc(C)n1-2 [OTX015]
Reply: 0.592 µM

Ask: Request the reported relative viability EC50 associated with FC(F)(F)c1cc(NC(=S)Nc2ccc(Br)cc2-c2nnn[nH]2)cc(C(F)(F)F)c1
Reply: > 10 µM

Ask: Request the reported relative viability EC50 associated with CN1CC2c3ccccc3Oc3ccc(Cl)cc3C2C1 (stereo unspecified) [asenapine]
Reply: > 10 µM

Ask: Request the reported relative viability EC50 associated with O=C(/C=C/c1ccc(O)c(O)c1)O[C@H](Cc1ccc(O)c(O)c1)C(=O)O [rosmarinic-acid]
Reply: > 10 µM

Ask: Request the reported relative viability EC50 associated with Cc1ncc(CO)c(CO)c1O [pyridoxine]
Reply: > 10 µM

Ask: Request the reported relative viability EC50 associated with CN(C)C/C=C/C(=O)Nc1ccc(C(=O)Nc2cccc(Nc3ncc(Cl)c(-c4c[nH]c5ccccc45)n3)c2)cc1 [THZ1]
Reply: 0.11 µM

Ask: Request the reported relative viability EC50 associated with O=c1[nH]c(=O)n([C@H]2C[C@H](O)[C@@H](CO)O2)cc1/C=C/Br [brivudine]
Reply: > 10 µM

Ask: Request the reported relative viability EC50 associated with CC(CNC1CCCCC1)OC(=O)c1ccccc1 (stereo unspecified) [hexylcaine]
Reply: > 10 µM

====

Tested on: Vero E6
Assay: cell viability relative to DMSO; higher = less toxic
Settings: 72 h; 10 nM
propertyMeasured: cell viability (%)
Report as a plain number; the unit % is understood.

Example entries and their recorded answers appear below.
CC(C)NC(=N)NC(=N)Nc1ccc(Cl)cc1 : 91.9
COc1cc(C(=O)NCCCCCC(=O)O)cc(OC)c1OC : 101
CCCCCCCCCCCCCCCC[N+](C)(C)CCN(Cc1ccc(OC)cc1)c1ncccn1 : 97.8
Nc1ncnc2c1c(-c1cnc3[nH]ccc3c1)nn2C1CCCC1 : 104
CC(C)CCN1c2nc(Nc3cc(F)c(O)c(F)c3)ncc2N(C)C(=O)[C@@H]1C : 98.7
COc1ccc(N(C(=O)Oc2c(C)cccc2C)c2ccnc(Nc3ccc(N4CCN(C)CC4)cc3)n2)c(OC)c1 : 97.4
CC1=C(C(=O)O)N2C(=O)[C@@H](NC(=O)[C@H](N)c3ccccc3)[C@H]2SC1 : 100
OCc1ccccc1O : 104

Ask: Request the reported cell viability associated with CCc1[nH]c(=O)[nH]c1C(=O)c1ccncc1
Reply: 94.6

Ask: Request the reported cell viability associated with Cn1c2cc([S+](C)[O-])sc2c2cnn(Cc3cccc(N)c3)c(=O)c21 (stereo not given)
Reply: 97.4

Ask: Request the reported cell viability associated with N[C@@H]1c2cccnc2[C@H](OC(=O)N2CCC(n3c(=O)[nH]c4ncccc43)CC2)CC[C@H]1c1cccc(F)c1F
Reply: 96.8

Ask: Request the reported cell viability associated with C[C@@H](Oc1ccc2[nH]nc(/C=C/c3cnn(CCO)c3)c2c1)c1c(Cl)cncc1Cl
Reply: 92.4

====

As shown below, each of these compounds has a reported cell viability value.
Test system: Vero E6
Test: cell viability relative to DMSO; higher = less toxic
Settings: 72 h; 1000 nM
Report as a plain number; the unit % is understood.

CC(C)N(CCCCOCC(=O)NS(C)(=O)=O)c1cnc(-c2ccccc2)c(-c2ccccc2)n1 : 98.4
CC=CC1=C(C(=O)O)N2C(=O)[C@@H](NC(=O)[C@H](N)c3ccc(O)cc3)[C@H]2SC1 (mixture of isomers) : 103
CCN(CC)CCNC(=O)COc1ccc(OC)cc1 [mefexamide] : 96.8
CC1=CC[C@@H](C(C)(C)O)C[C@@H]1O [sobrepin] : 98.1
CCNC(=O)[C@@H]1CCCN1C(=O)[C@H](CCCNC(=N)N)NC(=O)[C@H](CC(C)C)NC(=O)[C@@H](CC(C)C)NC(=O)[C@H](Cc1ccc(O)cc1)NC(=O)[C@H](CO)NC(=O)[C@H](Cc1c[nH]c2ccccc12)NC(=O)[C@H](Cc1c[nH]cn1)NC(=O)[C@@H]1CCC(=O)N1 [leuprolide] : 105

Ask: Find the measured cell viability: item CN1CCN(c2ccc(/C=C(\C#N)c3ccccc3Br)cc2)CC1 , target or system Vero E6.
Reply: 105

Ask: Find the measured cell viability: item N#Cc1cc(-c2n[nH]c(-c3ccncc3)n2)ccn1 , target or system Vero E6.
Reply: 102

Ask: Find the measured cell viability: item CC(C)c1ccc(NC(=O)c2cccs2)c(-c2nc3ccccc3[nH]c2=O)c1 , target or system Vero E6.
Reply: 95.5

Ask: Find the measured cell viability: item CC(C)(Oc1ccc(CCNC(=O)c2ccc(Cl)cc2)cc1)C(=O)O [bezafibrate] , target or system Vero E6.
Reply: 104

====

Test system: Vero E6
Assay: cell viability relative to DMSO; higher = less toxic
Conditions: 72 h; 10 nM
As shown below, each of these compounds has a reported cell viability value.
Report as a plain number; the unit % is understood.

CC[C@H](C)C(=O)O[C@H]1C[C@H](O)C=C2C=C[C@H](C)[C@H](CC[C@@H](O)C[C@@H](O)CC(=O)O)[C@H]21 [PRAVASTATIN SODIUM] : 109

Ask: Find the measured cell viability: item CC(=O)O[C@@H]1C[C@H]2C(C)(C)C(=O)C=C[C@]2(C)[C@H]2CC[C@@]3(C)[C@H](c4ccoc4)OC(=O)[C@H]4O[C@]43[C@@]21C [gedunin] , target or system Vero E6.
Reply: 102

Ask: Find the measured cell viability: item CCCSc1ccc2[nH]c(NC(=O)OC)nc2c1 [albendazole] , target or system Vero E6.
Reply: 95.3

Ask: Find the measured cell viability: item C[C@H](Cn1cnc2c(N)ncnc21)OCP(=O)(O)O [tenofovir] , target or system Vero E6.
Reply: 94.4

Ask: Find the measured cell viability: item Cc1nc2c(c(=O)[nH]1)CSCC2 [DR-2313] , target or system Vero E6.
Reply: 100

Ask: Find the measured cell viability: item CN(C)CCOC(c1ccccc1)c1ccccc1.Cn1c(=O)c2[nH]c(Cl)nc2n(C)c1=O [dimenhydrinate] , target or system Vero E6.
Reply: 99.7

Ask: Find the measured cell viability: item CC(C)(CCCCCC(O)CCCCCC(C)(C)C(=O)O)C(=O)O [bempedoic-acid] , target or system Vero E6.
Reply: 104

Ask: Find the measured cell viability: item CN1C(=O)COc2c(C(=O)NC3CN4CCC3CC4)cc(Cl)cc21 (stereo not drawn) [azasetron] , target or system Vero E6.
Reply: 94.4
